Target or test system: T1, human Claudin18.1 (CLDN18.1) (human, UniProt P56856 1-261)
T1 construct: whole, on cells; also called human Claudine18.1
T1 sequence (P56856 whole entry): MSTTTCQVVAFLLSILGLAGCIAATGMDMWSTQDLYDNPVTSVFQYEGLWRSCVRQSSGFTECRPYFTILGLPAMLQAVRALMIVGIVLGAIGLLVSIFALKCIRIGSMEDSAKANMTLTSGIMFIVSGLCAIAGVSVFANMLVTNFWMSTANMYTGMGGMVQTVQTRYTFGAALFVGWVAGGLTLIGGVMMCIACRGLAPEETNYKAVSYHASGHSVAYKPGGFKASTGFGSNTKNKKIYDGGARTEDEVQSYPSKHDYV
Assay protocol: FACS on CHOK1-18.1 cells;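 further: test antibody binding to the cells detected by flow cytometry using a fluorescent dye-labelled secondary antibody, read out as median fluorescence intensity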
Readout type: FACS MFI

Request: Any idea what FACS MFI was measured for Ab26 (antibody, V domains shown, mouse monoclonal (hybridoma)) VH: EVMLVESGGGLVKPGGSLKLSCTASGFTFRSYTMSWVRQTPEKRLEWVATITGGGGNTYFLDSVKGRFTFSRDNAKNALYLQMNSLRSEDTALYYCARLGQTQRNAMDYWGQGTSVTVSS VL: DIVMTQSPSSLSVSAGEKVTMSCKSSQSLLNSGNQMNYLAWYQQKPGQPPKLLIYGASTRESGVPDRFTGSGSGTDFTLTISSVQAEDLAIYYCQNDHTYPLTFGAGTKLEL ?
Response: 80.8
